# system name: ERα (Homo sapiens, UniProt P03372)
# Construct: host or cells: MCF7
# Sequence (P03372 whole entry): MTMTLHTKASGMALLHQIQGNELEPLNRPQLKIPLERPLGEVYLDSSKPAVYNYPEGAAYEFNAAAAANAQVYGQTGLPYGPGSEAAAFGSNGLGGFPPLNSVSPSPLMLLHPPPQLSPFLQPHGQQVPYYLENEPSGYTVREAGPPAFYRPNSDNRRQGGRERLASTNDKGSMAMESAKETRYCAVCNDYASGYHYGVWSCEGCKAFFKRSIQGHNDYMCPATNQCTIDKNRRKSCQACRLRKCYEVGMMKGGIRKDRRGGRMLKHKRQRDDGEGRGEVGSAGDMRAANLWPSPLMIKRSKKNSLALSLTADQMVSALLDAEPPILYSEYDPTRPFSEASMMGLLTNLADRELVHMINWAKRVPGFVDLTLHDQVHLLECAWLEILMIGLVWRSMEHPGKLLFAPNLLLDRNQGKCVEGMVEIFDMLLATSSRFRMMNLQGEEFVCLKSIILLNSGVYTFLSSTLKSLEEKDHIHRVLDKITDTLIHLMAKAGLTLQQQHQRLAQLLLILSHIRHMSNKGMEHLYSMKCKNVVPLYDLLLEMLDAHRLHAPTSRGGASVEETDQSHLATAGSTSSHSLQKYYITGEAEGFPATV
# assay protocol: Estrogen receptor degradation activity: breast cancer cell ERα in cell western assay (MCF7 cells)
# Type: cell-based
# measurement context: 4 hours post compound addition, concentration which degrades 50% of the estrogen receptor, read-out: Degradation IC50
measurement type: DC50

Query (molecule): O=C(O)c1ccc2c(c1)CCCC(c1ccccc1Cl)=C2c1ccc(CC2CN(CCCF)C2)cc1 [Example 3] ; field requested: DC50 0.3 nM

Query (molecule): Cc1ccc(C2=C(c3ccc(CC4CN(CCCF)C4)cc3)c3ccc(C(=O)O)cc3CCC2)c(Cl)c1.Cl [Example 7] ; field requested: DC50 0.5 nM

Query (molecule): O=C([O-])c1ccc2c(c1)CCCC(C1=C[C@@H]3CCC[C@@H]3C1)=C2c1ccc(CC2CN(CCCF)C2)cc1.[Na+] (relative stereo) [Example 299] ; field requested: DC50 0.7 nM

Query (molecule): Cl.O=C(O)c1ccc2c(c1)OCCC(c1ccccc1Cl)=C2c1ccc(CC2CN(CCCF)C2)cc1 [Example 49] ; field requested: DC50 3.4 nM

Query (molecule): O=C(O)c1ccc2c(c1)CCCC(c1ccc(F)cc1Cl)=C2c1ccc(CC2(F)CN(CCCF)C2)cc1 [Example 242] ; field requested: DC50 1.7 nM

Query (molecule): O=C(O)c1ccc2c(c1)CCCC(c1ccccc1C(F)(F)F)=C2c1ccc(CC2CN(CCCF)C2)cc1 [Example 23] ; field requested: DC50 0.2 nM

Query (molecule): CC(C)C1CCc2cc(C(=O)O)ccc2C(c2ccc(CC3CN(CCCF)C3)cc2)=C1c1ccc(Cl)cc1Cl (single isomer, unassigned) [Example 322] ; field requested: DC50 0.6 nM

Query (molecule): O=C(O)c1ccc2c(c1)SCC(c1ccc(Cl)cc1Cl)=C2c1ccc(CC2CN(CCCF)C2)cc1 [Example 308] ; field requested: DC50 1.4 nM

Query (molecule): O=C(O)c1ccc2c(c1)CCCC(c1ccc(Cl)cc1Cl)=C2c1ccc(CC2(F)CN(CCCF)C2)cc1 [Example 46] ; field requested: DC50 0.6 nM

Query (molecule): COc1c(Cl)cccc1C1=C(c2ccc(CC3CN(CCCF)C3)cc2)c2ccc(C(=O)O)cc2CCC1 [Example 334] ; field requested: DC50 0.4 nM

Query (molecule): O=C(O)c1ccc2c(c1)CCCC(c1c(Cl)cccc1C(F)(F)F)=C2c1ccc(CC2CN(CCCF)C2)cc1 [Example 34] ; field requested: DC50 0.2 nM

Query (molecule): CCC(CC)CC1=C(c2ccc(CC3CN(CCCF)C3)cc2)c2ccc(C(=O)O)cc2CCC1 [Example 231] ; field requested: DC50 0.3 nM

Query (molecule): Cl.O=C(O)c1ccc2c(c1)CCCC(C1CCC(F)(F)CC1)=C2c1ccc(CC2CN(CCCF)C2)cc1 [Example 4, Hydrochloride] ; field requested: DC50 0.9 nM

Query (molecule): O=C(O)c1ccc2c(c1)CCCC(C1CC3(C1)CC(F)(F)C3)=C2c1ccc(CC2CN(CCCF)C2)cc1 [Example 51] ; field requested: DC50 0.7 nM

Query (molecule): O=C(O)c1ccc2c(c1)CCCC(c1ccc(Cl)cc1Cl)=C2c1ccc(CC2CN(CCCF)C2)cn1 [Example 253] ; field requested: DC50 4 nM
